# target-desc: HDAC6 human recombinant (Homo sapiens)
# Construct: purchased Calbiochem 382180
# Sequence (Q9UBN7 whole entry): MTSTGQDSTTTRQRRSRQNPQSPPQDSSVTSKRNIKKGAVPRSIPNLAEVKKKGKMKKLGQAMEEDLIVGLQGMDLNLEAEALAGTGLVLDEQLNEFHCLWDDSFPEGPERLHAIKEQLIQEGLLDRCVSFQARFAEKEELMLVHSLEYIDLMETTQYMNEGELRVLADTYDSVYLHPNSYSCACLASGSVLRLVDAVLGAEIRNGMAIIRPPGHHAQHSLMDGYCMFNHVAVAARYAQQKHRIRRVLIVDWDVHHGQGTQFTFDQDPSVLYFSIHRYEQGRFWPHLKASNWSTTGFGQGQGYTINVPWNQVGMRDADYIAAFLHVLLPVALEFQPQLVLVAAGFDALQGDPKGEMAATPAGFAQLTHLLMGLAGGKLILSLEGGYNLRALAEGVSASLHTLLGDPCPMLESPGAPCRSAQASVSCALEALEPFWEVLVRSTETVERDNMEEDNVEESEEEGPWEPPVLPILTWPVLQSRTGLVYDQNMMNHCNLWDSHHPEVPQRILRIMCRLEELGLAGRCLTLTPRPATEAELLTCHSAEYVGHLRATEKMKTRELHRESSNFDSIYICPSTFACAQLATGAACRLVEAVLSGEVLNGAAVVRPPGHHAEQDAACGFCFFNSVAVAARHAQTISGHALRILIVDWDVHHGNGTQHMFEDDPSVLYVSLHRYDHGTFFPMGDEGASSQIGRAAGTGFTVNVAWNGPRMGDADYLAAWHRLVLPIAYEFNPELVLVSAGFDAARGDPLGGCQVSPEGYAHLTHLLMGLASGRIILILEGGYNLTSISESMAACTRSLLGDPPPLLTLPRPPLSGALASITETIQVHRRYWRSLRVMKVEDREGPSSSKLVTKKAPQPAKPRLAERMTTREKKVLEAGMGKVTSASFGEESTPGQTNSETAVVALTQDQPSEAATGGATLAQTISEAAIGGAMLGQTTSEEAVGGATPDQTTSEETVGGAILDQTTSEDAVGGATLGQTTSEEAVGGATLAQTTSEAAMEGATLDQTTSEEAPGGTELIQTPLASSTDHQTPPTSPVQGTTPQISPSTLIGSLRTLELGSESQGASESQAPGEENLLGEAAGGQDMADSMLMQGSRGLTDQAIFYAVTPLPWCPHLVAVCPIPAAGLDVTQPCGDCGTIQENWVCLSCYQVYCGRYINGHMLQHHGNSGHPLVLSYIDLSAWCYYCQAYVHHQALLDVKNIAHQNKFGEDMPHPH
# test-method-notes: HDAC6 enzyme inhibition, fluorimetric assay
# Type: biochemical
# run-conditions: 0.1-1000 nM tested, 37° C. 60 minutes, fluorescence; read-out: HDAC6 (μM), ability to inhibit the activity of HDAC enzyme
readout: log10(IC50) (log10 of the value in µM)
The base-10 logarithm of IC50, taken with IC50 in µM, is what appears here.

- smiles-representation: "CN(CCCCCCC(=O)NO)C(=O)N1CCN(C(c2ccccc2)c2ccccc2)CC1"
  target-desc: "HDAC6 human recombinant (Homo sapiens)"
  result-value: -1.36
- smiles-representation: "O=C(CCCCCCNC(=O)N1CCN(C(c2ccccn2)c2ccccn2)CC1)NO"
  target-desc: "HDAC6 human recombinant (Homo sapiens)"
  result-value: -1.07
- smiles-representation: "O=C(CCCCCCNC(=O)N1CCC(N(c2ccccc2)c2cccc(F)c2)CC1)NO"
  target-desc: "HDAC6 human recombinant (Homo sapiens)"
  result-value: -0.94
- smiles-representation: "C[C@@H]1CN(C(c2ccccc2)c2ccccc2)C[C@H](C)N1C(=O)NCCCCCCC(=O)NO"
  target-desc: "HDAC6 human recombinant (Homo sapiens)"
  result-value: -1.85
- smiles-representation: "O=C(CCCCCCNC(=O)N1CCC(N(c2ccccc2)c2ccccc2)CC1)NO"
  target-desc: "HDAC6 human recombinant (Homo sapiens)"
  result-value: -1.10

Known value: HDAC6 human recombinant (Homo sapiens) log10(IC50) of the molecule CN(CCCCCCC(=O)NO)C(=O)C1CCN(C(c2ccccc2)c2ccccc2)CC1 equals -1.42

Known value: HDAC6 human recombinant (Homo sapiens) log10(IC50) of the molecule O=C(CCCCCNC(=O)N1CC2(CCN(C(c3ccccc3)c3ccccc3)CC2)C1)NO equals -0.70

Known value: HDAC6 human recombinant (Homo sapiens) log10(IC50) of the molecule O=C(CCCCCCNS(=O)(=O)N1CCC(C(O)(c2ccccc2)c2ccccc2)CC1)NO equals -1.15

---

# target-desc: HDAC6 human recombinant (Homo sapiens)
# Construct: purchased Calbiochem 382180
# test-method-notes: HDAC6 enzyme inhibition, fluorimetric assay
# Type: biochemical
# run-conditions: 0.1-1000 nM tested, 37° C. 60 minutes, fluorescence; read-out: HDAC6 (μM), ability to inhibit the activity of HDAC enzyme
readout: IC50

- molecule: "O=C(CCCCCCNC(=O)N1CCN(C(c2ccc(Cl)cc2)c2ccc(Cl)cc2)CC1)NO"
  IC50: "0.087 µM"
- molecule: "O=C(CCCCCCCNC(=O)N1CCN(C(c2ccccc2)c2ccccc2)CC1)NO"
  IC50: "0.07 µM"
- molecule: "CC(c1ccccc1)N1CCN(C(=O)NCCCCCCC(=O)NO)CC1 (stereo not shown)"
  IC50: "0.025 µM"
- molecule: "O=C(CCCCCCNC(=O)N1CCN(C(c2cccc(F)c2)c2cccc(F)c2)CC1)NO"
  IC50: "0.029 µM"
- molecule: "O=C(CCCCCCNC(=O)N1CCN(C(c2ccc(F)cc2)c2ccc(F)cc2)CC1)NO"
  IC50: "0.073 µM"

Known value: HDAC6 human recombinant (Homo sapiens) IC50 of the molecule O=C(CCCCCCCNC(=O)C1CCN(C(c2ccccc2)c2ccccc2)CC1)NO equals 0.336 µM

Known value: HDAC6 human recombinant (Homo sapiens) IC50 of the molecule O=C(CCCCCCNC(=O)N1CCN(C(c2ccccc2F)c2ccccc2F)CC1)NO equals 0.019 µM

Known value: HDAC6 human recombinant (Homo sapiens) IC50 of the molecule C[C@H]1CN(C(c2ccccc2)c2ccccc2)CCN1C(=O)NCCCCCCC(=O)NO equals 0.065 µM

Known value: HDAC6 human recombinant (Homo sapiens) IC50 of the molecule O=C(CCCCCCNC(=O)N1CC2(CCN(C(c3ccccc3)c3ccccc3)CC2)C1)NO equals 0.04 µM

Known value: HDAC6 human recombinant (Homo sapiens) IC50 of the molecule O=C(CCCCCCNC(=O)C1CCN(C(c2ccccc2)c2ccccc2)CC1)NO equals 0.006 µM

---

# target-desc: HDAC1 (Homo sapiens)
# Construct: purchased Enzolifesciences BML-AK511
# test-method-notes: HDAC1 enzyme inhibition, HDAC1 fluorimetric drug discovery assay kit
# Type: biochemical
# run-conditions: 100-10000 nM tested, 37° C. 60 minutes, fluorescence; read-out: HDAC1 (μM), ability to inhibit the activity of HDAC enzyme
Collected log10(IC50) values appear next to each entry.
The base-10 logarithm of IC50, taken with IC50 in µM, is what appears here.

Solved cases below.
- compound: "O=C(CCCCCNC(=O)C1CCN(C(c2ccccc2)c2ccccc2)CC1)NO [Compound 1316]"
  target-desc: "HDAC1 (Homo sapiens)"
  readout: "log10(IC50)"
  result-value: -0.63
- compound: "C[C@@H]1CN(C(c2ccccc2)c2ccccc2)CCN1C(=O)NCCCCCCC(=O)NO [Compound 1189]"
  target-desc: "HDAC1 (Homo sapiens)"
  readout: "log10(IC50)"
  result-value: -0.08
- compound: "O=C(CCCCCCNC(=O)N1CCN(C(c2ccccc2F)c2ccccc2F)CC1)NO [Compound 1647]"
  target-desc: "HDAC1 (Homo sapiens)"
  readout: "log10(IC50)"
  result-value: -0.33
- compound: "CN(CCCCCCC(=O)NO)C(=O)C1CCN(C(c2ccccc2)c2ccccc2)CC1 [Compound 1256]"
  target-desc: "HDAC1 (Homo sapiens)"
  readout: "log10(IC50)"
  result-value: -1.10
- compound: "O=C(CCCCCCNC(=O)N1CC2(CCN(C(c3ccccc3)c3ccccc3)CC2)C1)NO [Compound 1764]"
  target-desc: "HDAC1 (Homo sapiens)"
  readout: "log10(IC50)"
  result-value: -0.63
- compound: "O=C(CCCCCCCNC(=O)C1CCN(C(c2ccccc2)c2ccccc2)CC1)NO [Compound 1317]"
  target-desc: "HDAC1 (Homo sapiens)"
  readout: "log10(IC50)"
  result-value: -1.64

Let us examine a further case.
For record O=C(CCCCCCNC(=O)N1CCC(N(c2ccccc2)c2ccccc2)CC1)NO [Compound 1221] the listed log10(IC50) is 0.27

---

# target-desc: HDAC1 (Homo sapiens, UniProt Q13547)
# Construct: purchased Enzolifesciences BML-AK511
# Sequence (Q13547 whole entry): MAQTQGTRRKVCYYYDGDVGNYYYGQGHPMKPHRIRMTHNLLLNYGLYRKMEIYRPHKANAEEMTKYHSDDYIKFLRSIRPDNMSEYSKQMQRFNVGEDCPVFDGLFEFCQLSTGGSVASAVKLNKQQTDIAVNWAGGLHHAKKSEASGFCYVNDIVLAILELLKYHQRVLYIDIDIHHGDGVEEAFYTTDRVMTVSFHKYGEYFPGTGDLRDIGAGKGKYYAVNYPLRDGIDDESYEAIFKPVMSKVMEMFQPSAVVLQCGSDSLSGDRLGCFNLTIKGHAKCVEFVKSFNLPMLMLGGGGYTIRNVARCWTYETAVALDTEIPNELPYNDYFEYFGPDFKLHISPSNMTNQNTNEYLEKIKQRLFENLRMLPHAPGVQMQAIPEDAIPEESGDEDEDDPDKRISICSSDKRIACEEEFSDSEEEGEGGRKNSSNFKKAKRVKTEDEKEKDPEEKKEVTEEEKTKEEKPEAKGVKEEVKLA
# test-method-notes: HDAC1 enzyme inhibition, HDAC1 fluorimetric drug discovery assay kit
# Type: biochemical
# run-conditions: 100-10000 nM tested, 37° C. 60 minutes, fluorescence; read-out: HDAC1 (μM), ability to inhibit the activity of HDAC enzyme
# Experimental: Using a HDAC1 fluorimetric drug discovery assay kit (Enzolifesciences: BML-AK511) and a HDAC6 human recombinant (Calbiochem: 382180), the HDAC enzyme inhibitory abilities of test compounds were measured. […] It was allowed to react at 37° C. for 60 minutes, and then was treated with a developer and allowed to react at 37° C. for 30 minutes, after which the fluorescence intensity (Ex 390 nm; Em 460 nm) was measured using FlexStatin3 (Molecular Device).
// boundary case: IC50 equal to 0.7 µM maps to Condition not met; strictly smaller maps to Condition met

Consider the following illustrative entries.
- compound: "O=C(CCCCCCNC(=O)N1CCC(N(c2ccccc2)c2cccc(F)c2)CC1)NO"
  group-label: "Condition not met"
- compound: "O=C(CCCCCCNC(=O)N1CCN(C(c2ccccc2)c2ccccc2)CC1)NO"
  group-label: "Condition not met"
- compound: "C[C@@H]1CN(C(c2ccccc2)c2ccccc2)C[C@H](C)N1C(=O)NCCCCCCC(=O)NO"
  group-label: "Condition not met"
- compound: "O=C(CCCCCCNC(=O)N1CCC(C(F)(c2ccccc2)c2ccccc2)CC1)NO"
  group-label: "Condition met"
- compound: "O=C(CCCCCCNC(=O)N1CCN(C(c2ccc(F)cc2)c2ccc(F)cc2)CC1)NO"
  group-label: "Condition not met"

Field: next compound
IN: Is it true that IC50 reported for CC(c1ccccc1)N1CCC(C(=O)NCCCCCCC(=O)NO)CC1 (centres unmarked) is less than 0.7 µM?
OUT: Condition met

---

# target-desc: HDAC1 (Homo sapiens)
# Construct: purchased Enzolifesciences BML-AK511
# test-method-notes: HDAC1 enzyme inhibition, HDAC1 fluorimetric drug discovery assay kit
# Type: biochemical
# run-conditions: 100-10000 nM tested, 37° C. 60 minutes, fluorescence; read-out: HDAC1 (μM), ability to inhibit the activity of HDAC enzyme
# Experimental: Using a HDAC1 fluorimetric drug discovery assay kit (Enzolifesciences: BML-AK511) and a HDAC6 human recombinant (Calbiochem: 382180), the HDAC enzyme inhibitory abilities of test compounds were measured. […] It was allowed to react at 37° C. for 60 minutes, and then was treated with a developer and allowed to react at 37° C. for 30 minutes, after which the fluorescence intensity (Ex 390 nm; Em 460 nm) was measured using FlexStatin3 (Molecular Device).
Collected log10 of IC50 values appear next to each entry.
The base-10 logarithm of IC50, taken with IC50 in µM, is what appears here.

Known value: HDAC1 (Homo sapiens) log10 of IC50 of the compound CN(CCCCCCC(=O)NO)C(=O)N1CCN(C(c2ccccc2)c2ccccc2)CC1 equals -0.15

Known value: HDAC1 (Homo sapiens) log10 of IC50 of the compound C[C@H]1CN(C(c2ccccc2)c2ccccc2)CCN1C(=O)NCCCCCCC(=O)NO equals 0.13

Known value: HDAC1 (Homo sapiens) log10 of IC50 of the compound O=C(CCCCCCCNC(=O)N1CCN(C(c2ccccc2)c2ccccc2)CC1)NO equals -0.39

Known value: HDAC1 (Homo sapiens) log10 of IC50 of the compound O=C(CCCCCCNC(=O)C1CCN(C(c2ccccc2)c2ccccc2)CC1)NO equals 0.06

Known value: HDAC1 (Homo sapiens) log10 of IC50 of the compound O=C(CCCCCNC(=O)N1CC2(CCN(C(c3ccccc3)c3ccccc3)CC2)C1)NO equals -1.64
